biological target: human CCR2 (Homo sapiens); assay: Functional Ca2+ release test (B-1); conditions: Chem-1 cell line transfected with human CCR2, inhibition of MCP-1 effect, MCP-1 at EC50 (about 5 nM), Fluo-4
pIC50: −log10 of the molar value.

CHEMICAL STRUCTURE	pIC50
NC(=O)Cc1nc(C(F)(F)F)c(Oc2ccc(F)c(F)c2)c(=O)[nH]1	6.32
Nc1nc(C(F)(F)F)c(Oc2ccc(C(F)(F)F)cc2)c(=O)[nH]1	7.30
O=c1[nH]c(CO)nc(C(F)(F)F)c1Oc1ccc(Cl)c(F)c1	8.21
O=c1[nH]c(CO)nc(C(F)(F)F)c1Oc1ccc(F)c(Cl)c1	8.11
Cc1ccc(Cc2c(C(F)(F)F)nc(C3CC3)[nH]c2=O)cc1Cl	7.04
CN(C)c1nc(C(F)(F)F)c(Oc2ccc(Cl)c(Cl)c2)c(=O)[nH]1	7.26
Cc1ccc(Cc2c(C(F)(F)F)nc(CC(N)=O)[nH]c2=O)cc1Cl	7.31
Nc1nc(C(F)(F)F)c(Oc2ccc(Cl)cc2)c(=O)[nH]1	7.42
Nc1nc(C(F)(F)F)c(Cc2cnc(Cl)c(Cl)c2)c(=O)[nH]1	7.96
CCc1nc(C(F)(F)F)c(Cc2ccc(Cl)c(F)c2)c(=O)[nH]1	6.66
CCNc1nc(C(F)(F)F)c(Oc2ccc(Cl)c(Cl)c2)c(=O)[nH]1	7.89
O=c1[nH]c(C2CC2)nc(C(F)(F)F)c1Cc1ccc(F)c(Cl)c1	6.82
CCCCc1nc(C(F)(F)F)c(Cc2ccc(Cl)c(Cl)c2)c(=O)[nH]1	6.96
Nc1nc(C(F)(F)F)c(Sc2ccc(Cl)cc2)c(=O)[nH]1	7.51
Nc1nc(C(F)(F)F)c(Cc2ccc(C(F)(F)F)c(Cl)c2)c(=O)[nH]1	7.15
Nc1nc(C(F)(F)F)c(Oc2ccc(F)c(C(F)(F)F)c2)c(=O)[nH]1	8.27
O=c1[nH]c(C2CC2)nc(C(F)(F)F)c1Cc1ccc(Cl)c(C(F)(F)F)c1	7.20
O=c1[nH]c(CO)nc(C(F)(F)F)c1Oc1ccc(F)c(F)c1	7.15

---

target: UniProtKB P41597; assay: Functional Ca2+ release test (B-1); details: Chem-1 cell line transfected with human CCR2, inhibition of MCP-1 effect, MCP-1 at EC50 (about 5 nM), Fluo-4
MEASURE NAME: IC50 (nM)

CHEMICAL STRUCTURE	MEASURE NAME	UNIT LABEL	RECORDED MEASUREMENT
NC(=O)Cc1nc(C(F)(F)F)c(Oc2cccc(Cl)c2)c(=O)[nH]1	IC50	nM	320
Nc1nc(C(F)(F)F)c(Sc2ccc(Cl)c(Cl)c2)c(=O)[nH]1	IC50	nM	2.3
NC(=O)Cc1nc(C(F)(F)F)c(Cc2ccc(Cl)c(Cl)c2)c(=O)[nH]1	IC50	nM	65
CCc1nc(C(F)(F)F)c(Cc2ccc(Cl)c(Cl)c2)c(=O)[nH]1	IC50	nM	120
Nc1nc(C(F)(F)F)c(Sc2ccc(Cl)c(C(F)(F)F)c2)c(=O)[nH]1	IC50	nM	4.1
NC(=O)Cc1nc(C(F)(F)F)c(Cc2ccc(F)c(Cl)c2)c(=O)[nH]1	IC50	nM	90
CCc1nc(C(F)(F)F)c(Cc2ccc(C(F)(F)F)c(Cl)c2)c(=O)[nH]1	IC50	nM	63
Nc1nc(C(F)(F)F)c(Oc2cccc(C(F)(F)F)c2)c(=O)[nH]1	IC50	nM	21
CCc1nc(C(F)(F)F)c(Oc2ccc(Cl)c(Cl)c2)c(=O)[nH]1	IC50	nM	15

---

Molecular target: human CCR2 (Homo sapiens)
Sequence (P41597 1-360 isoform P41597-2): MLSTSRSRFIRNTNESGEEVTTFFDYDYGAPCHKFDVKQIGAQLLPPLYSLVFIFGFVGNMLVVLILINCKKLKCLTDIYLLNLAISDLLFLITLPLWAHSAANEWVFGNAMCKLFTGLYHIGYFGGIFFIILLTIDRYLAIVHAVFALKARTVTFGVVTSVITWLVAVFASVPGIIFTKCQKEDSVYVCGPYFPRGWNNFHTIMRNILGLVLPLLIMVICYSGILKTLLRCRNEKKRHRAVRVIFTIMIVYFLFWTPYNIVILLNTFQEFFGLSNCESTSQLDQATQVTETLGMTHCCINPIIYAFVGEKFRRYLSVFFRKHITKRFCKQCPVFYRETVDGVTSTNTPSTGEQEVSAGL
Test: Functional Ca2+ release test (B-1)
Details: Chem-1 cell line transfected with human CCR2, inhibition of MCP-1 effect, MCP-1 at EC50 (about 5 nM), Fluo-4
pIC50: −log10 of the molar value.
Label 1 for high-side pIC50 (at or above 7) and 0 for low-side pIC50 (below it).

COMPOUND	ASSIGNED CLASS
NC(=O)Cc1nc(C(F)(F)F)c(Cc2ccc(Cl)c(C(F)(F)F)c2)c(=O)[nH]1 [Example 48]	1
Nc1nc(C(F)(F)F)c(Oc2ccc(Cl)c(F)c2)c(=O)[nH]1 [Example 5]	1
Nc1nc(C(F)(F)F)c(Cc2ccc(Cl)c(C(F)(F)F)c2)c(=O)[nH]1 [Example 8]	1
O=c1[nH]c(C2CC2)nc(C(F)(F)F)c1Cc1cccc(Cl)c1 [Example 21]	0
Nc1nc(C(F)(F)F)c(Oc2ccc(Cl)c(C(F)(F)F)c2)c(=O)[nH]1 [Example 2]	1
Nc1nc(C(F)(F)F)c(Oc2ccc(F)c(Cl)c2)c(=O)[nH]1 [Example 4]	1
Cc1cc(Oc2c(C(F)(F)F)nc(N)[nH]c2=O)ccc1Cl [Example 72]	1
O=c1[nH]c(C2CC2)nc(C(F)(F)F)c1Cc1ccc(C(F)(F)F)c(Cl)c1 [Example 24]	0
Nc1nc(C(F)(F)F)c(Oc2ccc(F)c(F)c2)c(=O)[nH]1 [Example 10]	1
Cc1ccc(Cc2c(C(F)(F)F)nc(N)[nH]c2=O)cc1Cl [Example 11]	1
NC(=O)Cc1nc(C(F)(F)F)c(Oc2ccc(Cl)c(Cl)c2)c(=O)[nH]1 [Example 46]	1
O=c1[nH]c(CCO)nc(C(F)(F)F)c1Oc1ccc(Cl)c(Cl)c1 [Example 68]	1

---

biological target: human CCR2 (Homo sapiens); assay: Functional Ca2+ release test (B-1); conditions: Chem-1 cell line transfected with human CCR2, inhibition of MCP-1 effect, MCP-1 at EC50 (about 5 nM), Fluo-4

MOLECULE	TEST TARGET	IC50 [nM]
CCc1nc(C(F)(F)F)c(Cc2ccc(Cl)c(C(F)(F)F)c2)c(=O)[nH]1	human CCR2 (Homo sapiens)	31
Nc1nc(C(F)(F)F)c(Cc2ccc(F)c(Cl)c2)c(=O)[nH]1	human CCR2 (Homo sapiens)	11
CNc1nc(C(F)(F)F)c(Oc2ccc(Cl)c(Cl)c2)c(=O)[nH]1	human CCR2 (Homo sapiens)	9.8
Nc1nc(C(F)(F)F)c(Cc2ccc(Cl)c(Cl)c2)c(=O)[nH]1	human CCR2 (Homo sapiens)	19
O=c1[nH]c(C2CCC2)nc(C(F)(F)F)c1Oc1ccc(Cl)c(Cl)c1	human CCR2 (Homo sapiens)	32
Cc1ccc(Oc2c(C(F)(F)F)nc(N)[nH]c2=O)cc1Cl	human CCR2 (Homo sapiens)	2.4
Nc1nc(C(F)(F)F)c(Oc2cncc(Cl)c2)c(=O)[nH]1	human CCR2 (Homo sapiens)	54
NC(=O)Nc1nc(C(F)(F)F)c(Cc2ccc(Cl)c(Cl)c2)c(=O)[nH]1	human CCR2 (Homo sapiens)	17
NC(=O)Cc1nc(C(F)(F)F)c(Oc2ccc(F)c(C(F)(F)F)c2)c(=O)[nH]1	human CCR2 (Homo sapiens)	91
Nc1nc(C(F)(F)F)c(S(=O)(=O)c2ccc(Cl)c(Cl)c2)c(=O)[nH]1	human CCR2 (Homo sapiens)	326
O=c1[nH]c(CO)nc(C(F)(F)F)c1Oc1cccc(Cl)c1	human CCR2 (Homo sapiens)	10
NC(=O)Cc1nc(C(F)(F)F)c(Cc2cccc(C(F)(F)F)c2)c(=O)[nH]1	human CCR2 (Homo sapiens)	270
Nc1nc(C(F)(F)F)c(Oc2ccc(Cl)c(OC(F)(F)F)c2)c(=O)[nH]1	human CCR2 (Homo sapiens)	1.8
CC(c1ccc(Cl)c(Cl)c1)c1c(C(F)(F)F)nc(N)[nH]c1=O (stereo not shown)	human CCR2 (Homo sapiens)	45
O=c1[nH]c(C2CC2)nc(C(F)(F)F)c1Oc1ccc(Cl)c(Cl)c1	human CCR2 (Homo sapiens)	15
Nc1nc(C(F)(F)F)c(Oc2cccc(Cl)c2)c(=O)[nH]1	human CCR2 (Homo sapiens)	38
Nc1nc(C(F)(F)F)c(Cc2ccc(Cl)nc2)c(=O)[nH]1	human CCR2 (Homo sapiens)	381
CC(C)Nc1nc(C(F)(F)F)c(Oc2ccc(Cl)c(Cl)c2)c(=O)[nH]1	human CCR2 (Homo sapiens)	121
CCc1nc(C(F)(F)F)c(Cc2cccc(C(F)(F)F)c2)c(=O)[nH]1	human CCR2 (Homo sapiens)	300
NC(=O)Cc1nc(C(F)(F)F)c(Cc2ccc(Cl)c(F)c2)c(=O)[nH]1	human CCR2 (Homo sapiens)	150
CCc1nc(C(F)(F)F)c(Cc2ccc(F)c(Cl)c2)c(=O)[nH]1	human CCR2 (Homo sapiens)	44
Nc1nc(C(F)(F)F)c(Oc2ccc(Cl)c(Cl)c2)c(=O)[nH]1	human CCR2 (Homo sapiens)	3.4
